- assay notes: yeast display, Sf9 membrane polyspecificity reagent, FACS + sequencing; frameworks hold sequencing errors

{"macromolecule sequence": "QVQLVESGGGLVQAGGSLRLSCAASGFTFLRNAMGWYRQAPGKERELVAAINRDGGRTYYADSVKGRFTISRDNAKNTVYLQMNSLKPADTAVYYCATTSQATSGPRRKLYYYWGQGTQVTVSS", "polyreactivity (PSR sort gate)": "high polyreactivity"}
{"macromolecule sequence": "QVQLVESGGGLVQAGGSLRLSCAASGITFIGYAMGWYRQAPGKERELVAAITTNGGGTYYADSVKWRFTISRDNAKKTVYLQMNSLKPEDTAVYYCNAVKQRSSIFDYWGQGSQVTVSS", "polyreactivity (PSR sort gate)": "low polyreactivity"}
{"macromolecule sequence": "QVQLVDSGGGLVQAGGRLLLSCSDSGINIPYYAMGWYRQAPGKERELVASISYDGTSSYYADSVKGRFTISRDNAKNTVYLHLNSLKPEDTAVYYCAPVPWWPRASYSMDYWGQGTQVTLSS", "polyreactivity (PSR sort gate)": "low polyreactivity"}
{"macromolecule sequence": "QVQLVESGGGLVQAGGSLRLSCAASGRIFGRYAMGWYRQATGKERELVAAITSGGRTSYADSVKGRFTISRDNAKNTVYLQMNSLKPEDTAVYYCNVVSRNSIRFDYWGQGTQVTVSS", "polyreactivity (PSR sort gate)": "high polyreactivity"}
{"macromolecule sequence": "QVQLVESGGGLVQAGGSLRLSCAASGLIFPYYVKVWYRQAPGKERELVAAISWNGSSTYYADSVKGRFTISRDNAKNTVYLQMNSLKPEDTAVYYCAASYGYFEDYGYWGQGTQVTVSS", "polyreactivity (PSR sort gate)": "low polyreactivity"}
{"macromolecule sequence": "QVQLVESGGGLVQAGGSLRLSCAASGRTFPNNAMGWYRQAPGKERELVAAISSGSSTDYADSVKGRFTISRDNAKNTVYLQMNSLKPEDTAVYYCNAGDYTYPGSPWPGYAYDYWGQGTQVTVSS", "polyreactivity (PSR sort gate)": "low polyreactivity"}
{"macromolecule sequence": "QVQLVESGGGLVQAGGSLRLICADSGSIFVYYLMVWYRQAPGKEREFVAAISYGGGSTYYADSVKGRFTISRDNAKNTVYLQMNSLKPEDTAVYYCNTDIYSDYVCEEYEYWGQGTQVTLSS", "polyreactivity (PSR sort gate)": "high polyreactivity"}
{"macromolecule sequence": "QVQLVESGGGLVQAGGSLRLSWAASGIILQEYTMGWYRPAHWKERELVAAISVRGGSTYYADSVKGRFTISRDHAKNTVYLQMNSLKPEDTAVYYCAAAYYRRPPGFNYWGQGTEVTVSS", "polyreactivity (PSR sort gate)": "high polyreactivity"}
{"macromolecule sequence": "QVQLVESGGRLVQAGGSIRLSCAASGSTLNVNAMGGYRQAPGKERELVAAITSGGSTYYADSVKGRFTISRDNAKNTVYLQMNSLKPEDTAVYYCNKRRSWRPTYPIGGSGFYYWGQGTQVTVSS", "polyreactivity (PSR sort gate)": "low polyreactivity"}
{"macromolecule sequence": "QVQLVESGGGLVQAGGSLRLSCAASGIIISYYTMGWYRQAPGKERELVAAITGSGGSTYYADSVKGRFTISRDNAKNTVYLQMNSLKPEDTAVYYCAADPSLRQYAYFDYYYWGQGTQVTVSS", "polyreactivity (PSR sort gate)": "low polyreactivity"}
{"macromolecule sequence": "QVQLVESGGGLVQAGGSLRLSCAASGLTVKWNAMGWYREAPGKETELFASITSGGSTNYADSVKGRFTISRDNAKNTVYLQMNSLKPEDTAFYYCNAEYYLFKRPYSYYYWGQGTQVTVSS", "polyreactivity (PSR sort gate)": "low polyreactivity"}
